- SYSTEM_UNDER_TEST: Adrenergic receptor alpha-1 (Rattus norvegicus, UniProt P15823+P23944+P43140)
- METHOD_DESCRIPTION: Displacement of [3H]prazosin from alpha1-adrenergic receptor in rat frontal cortex membrane after 45 mins by scintillation spectrometry
- Type: cell membranes
MEASURED_ATTRIBUTE: Ki (nM)

Worked set:
COMPOUND	SYSTEM_UNDER_TEST	MEASURED_ATTRIBUTE	RESULT_UNITS	TEST_VALUE
CCC1(CCCCN2CCN(c3ccccc3Cl)CC2)C(=O)Nc2ccccc21 (stereo unspecified)	Adrenergic receptor alpha-1 (Rattus norvegicus, UniProt P15823+P23944+P43140)	Ki	nM	64
O=C1Nc2ccccc2C1CCCCN1CCN(c2ccccc2)CC1 (stereo unspecified)	Adrenergic receptor alpha-1 (Rattus norvegicus, UniProt P15823+P23944+P43140)	Ki	nM	22
CCC1(CCCCN2CC=C(c3cccc(Cl)c3)CC2)C(=O)Nc2ccc(F)cc21 (stereo unspecified)	Adrenergic receptor alpha-1 (Rattus norvegicus, UniProt P15823+P23944+P43140)	Ki	nM	140
O=C1Nc2cc(F)ccc2C1CCCCN1CCN(c2ccc(Cl)cc2)CC1 (stereo unspecified)	Adrenergic receptor alpha-1 (Rattus norvegicus, UniProt P15823+P23944+P43140)	Ki	nM	55
O=C1Nc2ccccc2C1CCCCN1CCN(c2cccc(Cl)c2)CC1 (stereo unspecified)	Adrenergic receptor alpha-1 (Rattus norvegicus, UniProt P15823+P23944+P43140)	Ki	nM	26
O=C1Nc2ccccc2C1CCCCN1CC=C(c2cccc(C(F)(F)F)c2)CC1 (stereo unspecified)	Adrenergic receptor alpha-1 (Rattus norvegicus, UniProt P15823+P23944+P43140)	Ki	nM	310

[A] O=C1Nc2ccc(F)cc2C1CCCCN1CCN(c2ccc(Cl)cc2)CC1 (stereo unspecified)
[B] O=C1Nc2ccc(F)cc2C1CCCCN1CCN(c2ccccc2)CC1 (stereo unspecified)
// returns A or B , whichever has the lower Ki Your choice should be expressed through its label.
B
(B: 20 nM, A: 116 nM)

[1] CCC1(CCCCN2CCN(c3ccc(Cl)cc3)CC2)C(=O)Nc2ccccc21 (stereo unspecified)
[2] O=C1Nc2cc(F)ccc2C1CCCCN1CCN(c2cccc(Cl)c2)CC1 (stereo unspecified)
Of 1 versus 2 , which is the one with smaller reported Ki? // return label of chosen record
2
(2: 12.5 nM, 1: 93 nM)

These entries and their values trace back to ChEMBL document CHEMBL1833955.
